Biological target: Neutrophil elastase (Homo sapiens) (UniProt P08246)
Sequence (whole entry): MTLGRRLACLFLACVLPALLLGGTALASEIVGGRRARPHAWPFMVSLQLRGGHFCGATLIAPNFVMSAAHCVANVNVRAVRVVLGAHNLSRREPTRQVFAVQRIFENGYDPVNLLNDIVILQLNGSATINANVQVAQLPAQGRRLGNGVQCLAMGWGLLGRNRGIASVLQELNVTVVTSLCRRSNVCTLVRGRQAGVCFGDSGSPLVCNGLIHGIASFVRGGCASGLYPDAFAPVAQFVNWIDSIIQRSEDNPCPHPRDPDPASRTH
Assay: Inhibition of human neutrophil elastase
Endpoint Name: IC90

Compound	Value Observed
CC[C@@H]1C[C@]1(NC(=O)[C@@H]1C[C@@H]2CN1C(=O)[C@H](C(C)(C)C)NC(=O)OCC(C)(C)CCCCc1cccc3c1CN(C3)C(=O)O2)C(=O)NS(=O)(=O)C1CC1	> 100 µM
CCC[C@H](NC(=O)[C@@H]1[C@H]2CCC[C@H]2CN1C(=O)[C@@H](NC(=O)[C@@H](NC(=O)c1cnccn1)C1CCCCC1)C(C)(C)C)C(=O)C(=O)NC1CC1	> 100 µM
CCCC(NC(=O)C1N(C(=O)[C@@H](NC(=O)[C@@H](NC(=O)c2cnccn2)C2CCCCC2)C(C)(C)C)CC12CCCCC2)C(=O)C(=O)NC1CC1 (some centres undefined)	85 µM
CC(C)(C)NC(=O)N[C@H](C(=O)N1C[C@H]2[C@@H]([C@H]1C(=O)NC(CC1CCC1)C(=O)C(N)=O)C2(C)C)C(C)(C)C (some centres undefined)	> 100 µM

----------
system: Vero; experiment: Cytotoxicity against african green monkey Vero cells; format: cell-based; details: chlorocebus sabaeus
Each item that follows carries a reported CC50.
Endpoint Name: CC50 (µM)

Compound	Readout Relation	Value Observed
CCCC(NC(=O)C1CCN1C(=O)[C@@H](NC(=O)[C@@H](NC(=O)c1cnccn1)C1CCCCC1)C(C)(C)C)C(=O)C(=O)NCCF (some centres not stated)	>	100
CC(C)(C)[C@H](NC(=O)NC1CCCCC1)C(=O)N1CC2(Cc3ccccc3C2)C1C(=O)NC(CC1CCC1)C(=O)C(=O)NC1CC1 (some centres not stated)	=	26
CC(C)(C)[C@H](NC(=O)[C@@H](NC(=O)c1cnccn1)C1CCCCC1)C(=O)N1CC2(Cc3ccccc3C2)C1C(=O)NC(CC1CCC1)C(=O)C(=O)NC1CC1 (some centres not stated)	>	100
CCCC(NC(=O)C1CCN1C(=O)[C@@H](NC(=O)[C@@H](NC(=O)c1cnccn1)C1CCCCC1)C(C)(C)C)C(=O)C(=O)NC1CC1 (some centres not stated)	>	100
CCCC(NC(=O)C1N(C(=O)[C@@H](NC(=O)C2CCCCC2)C(C)(C)C)CC12Cc1ccccc1C2)C(=O)C(=O)NC1CC1 (some centres not stated)	=	43
CCCC(NC(=O)C1N(C(=O)[C@@H](NC(=O)CC(C)(C)C)C(C)(C)C)CC12Cc1ccccc1C2)C(=O)C(=O)NC1CC1 (some centres not stated)	=	46
CCCC(NC(=O)C1N(C(=O)[C@@H](NC(=O)NC2CCCCC2)C(C)(C)C)CC12Cc1ccccc1C2)C(=O)C(=O)NC1CC1 (some centres not stated)	=	44
CCCC(NC(=O)C1N(C(=O)[C@@H](NC(=O)Nc2ccc(OC)cc2)C(C)(C)C)CC12Cc1ccccc1C2)C(=O)C(=O)NC1CC1 (some centres not stated)	=	43
CCCC(NC(=O)C1N(C(=O)[C@@H](NC(=O)NC(C)(C)C)C(C)(C)C)CC12Cc1ccccc1C2)C(=O)C(=O)NC1CC1 (some centres not stated)	>	100
CCCC(NC(=O)C1CCN1C(=O)[C@@H](NC(=O)[C@@H](NC(=O)c1cnccn1)C1CCCCC1)C(C)(C)C)C(=O)C(=O)NCCOC (some centres not stated)	>	100
CCCC(NC(=O)C1N(C(=O)[C@@H](NC(=O)Nc2ccccc2)C(C)(C)C)CC12Cc1ccccc1C2)C(=O)C(=O)NC1CC1 (some centres not stated)	=	46
CCCC(NC(=O)C1N(C(=O)[C@@H](NC(=O)[C@@H](NC(=O)c2cnccn2)C2CCCCC2)C(C)(C)C)CC12CCCCC2)C(=O)C(=O)NCCF (some centres not stated)	=	21
